# TGI values compiled below
tested on: SW-620 colon; assay: NCI tumour cell line growth inhibition, 48 h
Return type: number; implicit unit µM.

{"columns": ["MOLECULE", "REPORTED_VALUE"],
 "data": [
  ["CC(C)(Cl)C(Cl)CC/C(CBr)=C(\\Cl)CCl (stereo not given)", 4.12]
]}

Okay, next one:
Prompt line: Data request, read-out TGI, for CC#Cc1nc2ccccc2c(=O)[nH]1
Response line: 23

* * *

The entries below come with measured TGI values attached.
test system: OVCAR-4 ovarian; test: NCI tumour cell line growth inhibition, 48 h

Look over these answered cases.
{"columns": ["COMPOUND", "REPORTED_VALUE"],
 "data": [
  ["Cc1cc2c(c(C(N)=O)c1C)-c1cccc(Cl)c1C2=O", "> 100 µM"],
  ["O=C1NC(=NCCc2cccs2)S/C1=C\\c1ccc2ncccc2c1", "> 25 µM"]
]}

Attention now turns to another entry.
Prompt line: Can you share its TGI? I mean this compound: O=C(C(=NC12CC3CC(CC(C3)C1)C2)NNc1ccc([N+](=O)[O-])cc1[N+](=O)[O-])C(Br)C(=O)c1ccccc1 (stereo not drawn)
Response line: > 10 µM

* * *

tested on: HCT-15 colon; experiment: NCI tumour cell line growth inhibition, 48 h
MEASURE_NAME: GI50

{"columns": ["COMPOUND", "REPORTED_VALUE"],
 "data": [
  ["CC(C)(C)c1[nH]nc2c1C(c1cc3ccccc3[nH]c1=O)Nc1cc(C(=O)Nc3ccc(Cl)cc3)ccc1N2 (stereo unspecified)", "> 28.8 µM"],
  ["Cc1c(NC(=O)c2cc(C(N)=O)nc3cc(F)ccc23)c(C(F)(F)F)nn1Cc1ccc(C#N)cc1", "23 µM"],
  ["Nc1ccc2c(c1)Cc1cc(Cl)c(Cl)cc1-2", "6.22 µM"],
  ["Cn1nc(-c2cccs2)cc1/N=C(\\N)C(C)(C#N)Cc1ccccc1 (stereo unspecified)", "29.3 µM"],
  ["O=c1c(O)c(O)c1=O.[NH2-].[NH2-].[NH2-].[NH2-].[NH2-].[Ru+5]", "> 100 µM"]
]}

With those in mind, consider the next compound.
Prompt line: # input compound: O=C(Cc1csc2nc(-c3ccc(Br)cc3)cn12)N/N=C/c1cc(Br)ccc1O ; wanted: its GI50
Response line: 5.6 µM

* * *

Some compounds, each annotated with its measured TGI.
test system: MALME-3M melanoma; assay: NCI tumour cell line growth inhibition, 48 h

Some solved cases for reference:
{"columns": ["COMPOUND", "REPORTED_VALUE"],
 "data": [
  ["C[C@]12CCc3nonc3C1CC[C@@H]1C2CC[C@]2(C)C(=O)CCC12 (stereo partly specified)", "65.7 µM"],
  ["CN(C)C=C1C(=O)N(C)C(=O)N(C)C1=O", "> 100 µM"],
  ["CC1(C)CCC(S(=O)(=O)c2ccc3c(c2)/C(=N\\O)c2cc(S(=O)(=O)N4CCN(c5ccc(F)cc5O)CC4)ccc2-3)CC1", "0.295 µM"],
  ["Cn1cc(NC(=O)c2cc(NC(=O)c3cc(NC=O)cn3C)cn2C)cc1C(=O)NCCC(=N)N", "> 100 µM"],
  ["CCN(CC)c1ccc(N=O)cc1", "4.46 µM"]
]}

As a next step, examine the compound that follows.
Prompt line: Sample COc1ccc2c(c1)O[C@@H]1c3ccc(OC)cc3OC[C@H]21 — what was its TGI?
Response line: > 100 µM

* * *

system: BT-549 breast; assay: NCI tumour cell line growth inhibition, 48 h
# maps each entry to its TGI

Use the examples below as a reference point.
{"columns": ["COMPOUND", "TGI"],
 "data": [
  ["O=C(C(=NC12CC3CC(CC(C3)C1)C2)NNc1ccc([N+](=O)[O-])cc1[N+](=O)[O-])C(Br)C(=O)c1ccccc1 (centres undefined)", "> 10 µM"],
  ["NC(N)=NS(=O)(=O)c1ccc(NC(=O)c2cccc3c(NNc4ccc(C(=O)O)cc4)c4ccccc4nc23)cc1", "> 100 µM"],
  ["O=[N+]([O-])c1ccc(N=Nc2c(O)ccc3cc(S(=O)(=O)O)cc(S(=O)(=O)O)c23)cc1", "> 100 µM"]
]}

For the next question, use this compound.
Prompt line: Quick one: TGI of O=C(Cc1csc2nc(-c3ccc(Br)cc3)cn12)N/N=C/c1cc(Br)ccc1O ?
Response line: > 100 µM

* * *

The following molecules are shown together with reported TGI values.
test system: HCT-15 colon; assay: NCI tumour cell line growth inhibition, 48 h

{"columns": ["MOLECULE", "REPORTED_VALUE"],
 "data": [
  ["Cc1ncc([N+](=O)[O-])n1CC(O)Cn1ccnc1[N+](=O)[O-] (stereo not given)", "> 100 µM"],
  ["Nc1ccc2c(c1)Cc1cc(Cl)c(Cl)cc1-2", "> 100 µM"],
  ["O=c1nc2sc3ccc4ccccc4c3n2nc1-c1ccccc1", "> 100 µM"]
]}

Prompt line: What does the data say about its TGI? Entry: O=C1/C(=C/c2ccc3c(c2)CCC3)Cc2cc3c(cc21)CCC3
Response line: > 100 µM

Prompt line: Param item = Cc1ccc(O)c(N=Nc2c(O)cc(S(=O)(=O)O)c3ccccc23)c1 ; retrieve measured TGI.
Response line: > 100 µM

* * *

test system: SF-295 CNS; assay: NCI tumour cell line growth inhibition, 48 h
MEASURE_NAME: TGI

{"columns": ["COMPOUND", "TGI"],
 "data": [
  ["Cc1ccnc(NS(=O)(=O)c2ccc(NC3=CC(=O)C(=O)c4ccccc43)cc2)n1", "> 100 µM"],
  ["Cc1ccc(S(=O)(=O)NC(CCC(=O)NN)C(=O)NN)cc1 (stereo not drawn)", "> 100 µM"]
]}

Continue with the next compound.
Prompt line: Need TGI, item CC1=C(C(=O)CC(=O)C(=O)Nc2cccc(Cl)c2C)Sc2ccccc2N1
Response line: > 100 µM

* * *

The compounds listed here are annotated with their TGI.
tested on: CCRF-CEM leukemia; assay: NCI tumour cell line growth inhibition, 48 h

Examples from the recorded data:
{"columns": ["SMILES_REPRESENTATION", "MEASURE_NAME", "REPORTED_VALUE"],
 "data": [
  ["CCc1c2c(nc3ccc(O)cc13)-c1cc3c(c(=O)n1C2)COC(=O)[C@]3(O)CC", "TGI", "> 100 µM"],
  ["COC(=O)C1=C(C)NC(C)=C(C(=O)OC)C1c1ccc(NO)cc1", "TGI", "> 27.3 µM"]
]}

// moving on: another record for TGI
Prompt line: For the compound shown here, Cn1cc(C2=C(Sc3ccccc3)C(=O)NC2=O)c2ccccc21 , give the reported TGI.
Response line: > 25 µM

* * *

system: HT29 colon; assay: NCI tumour cell line growth inhibition, 48 h
Below: a set of entries, each annotated with reported TGI.
# value in µM; strip the unit string

A selection of reference data follows.
{"columns": ["COMPOUND", "MEASURE_NAME", "UNIT_OF_MEASUREMENT", "REPORTED_VALUE"],
 "data": [
  ["COc1ccc2[nH]c3c(C)c4ccnc(NCCCN(C)CCCNc5ccc6nnn7c8ccccc8c(=O)c5c67)c4c(C)c3c2c1", "TGI", "µM", 1.36],
  ["CC[C@]12C=CCN3CC[C@]4(C(=C(C(=O)OC)C1)Nc1cc(OC)c(OC(C)=O)cc14)[C@@H]32", "TGI", "µM", 11],
  ["CN(C)c1ccc2nc3ccc(=N)cc-3sc2c1", "TGI", "µM", 63.5],
  ["COc1cc(/C=C2\\CC3C4CCC5=CC(=O)CC[C@]5(C)C4CC[C@]3(C)C2=O)ccc1OCCCn1ccnc1 (some centres not stated)", "TGI", "µM", 11.6]
]}

Prompt line: Look at this compound and give its reported TGI. O=C1/C(=C\c2ccc(Br)cc2)CN(C(=O)c2ccccc2F)C/C1=C\c1ccc(Br)cc1
Response line: 2.17

* * *

test system: TK-10 renal; experiment: NCI tumour cell line growth inhibition, 48 h; in the data active = GI50 below about 0.43 µM; inactive = the rest
Hi there, use one of these labels in your reply, thanks! TRUE for active, FALSE for inactive

Some entries whose results are on file:
{"columns": ["COMPOUND", "LABEL_VALUE"],
 "data": [
  ["COc1ccc(C2=C(c3cn(C)c4ccccc34)C(=O)NC2=O)cc1", "FALSE"],
  ["CC(C)=CC(=O)OCC(=O)O[C@@H]1C[C@]2(C(C)C)O[C@@]1(C)[C@@H]1CC[C@@H](C)[C@H]1[C@@H]2OC(=O)/C=C/c1ccccc1", "FALSE"],
  ["O=C1NC(=NCCc2cccs2)S/C1=C\\c1ccc2ncccc2c1", "FALSE"],
  ["Nc1ccc2c(c1)Cc1cc(Cl)c(Cl)cc1-2", "FALSE"],
  ["CC(C)(C)c1[nH]nc2c1C(c1cc3ccccc3[nH]c1=O)Nc1cc(C(=O)Nc3ccc(Cl)cc3)ccc1N2 (stereo unspecified)", "FALSE"],
  ["Cc1c(NC(=O)c2cc(C(N)=O)nc3cc(F)ccc23)c(C(F)(F)F)nn1Cc1ccc(C#N)cc1", "FALSE"]
]}

Prompt line: Identify the outcome logged in this assay for the compound shown: COc1cc2c(cc1O)N=C[C@@H]1C[C@@H](F)CN1C2=O
Response line: FALSE

Prompt line: Given O=C([O-])c1ccc2c(c1)-c1nc-2nc2[n-]c(nc3nc(nc4[n-]c(n1)c1ccc(C(=O)[O-])cc41)-c1ccc(C(=O)[O-])cc1-3)c1ccc(C(=O)[O-])cc21.[Gd+3].[K+] , state the outcome it received in this test.
Response line: FALSE

Prompt line: Recorded call for COc1cc2c3c(n(CCCN=[N+]=[N-])c(=O)c2cc1OC)-c1ccc(C#N)cc1C3=O ?
Response line: FALSE
